# target.of.assay: human D3 receptor (Homo sapiens)
# measurement.parameters: read-out: Agonist activity: IC50; hD3-transfected CHOp cells, mitogenesis; mean ± SEM of 3–6 determinations
readout.type: IC50 (nM)

compound: CCCN(CCC1(O)CC(NS(=O)(=O)c2ccc(F)c(Cl)c2)C1)[C@H]1CCc2nc(N)sc2C1 (stereo in doubt) [Compound 34]
IC50, nM: 26

compound: CCCN(CCC1(O)CC(NC(=O)c2ccccc2F)C1)[C@H]1CCc2nc(N)sc2C1 (stereo in doubt) [Compound 15]
IC50, nM: 2

compound: CCCN(CC[C@]1(O)C[C@@H](NC(=O)c2cccc(-c3noc(C)n3)c2)C1)[C@H]1CCc2nc(N)sc2C1 (relative stereo) [Compound 23]
IC50, nM: 19

compound: CCCN(CC[C@]1(O)C[C@@H](NS(=O)(=O)c2ccc(F)cc2)C1)[C@H]1CCc2nc(N)sc2C1 (relative stereo) [Compound 33]
IC50, nM: 17

1. CCCN(CCC1(O)CC(NC(=O)c2ccc(F)c(Cl)c2)C1)[C@H]1CCc2nc(N)sc2C1 (stereo in doubt) [Compound 18]
2. CCCN(CC[C@]1(O)C[C@@H](NC(=O)c2cccc(OC)c2)C1)[C@H]1CCc2nc(N)sc2C1 (relative stereo) [Compound 21]
Prompt: Identify the entry with the larger IC50. Options: 1 and 2 Give the label of your selection.
Completion: 2
(2: 18 nM, 1: 2 nM)

###

# Test system: D1-like receptor (D1 and D5)
# assay.method.text: [3H]SCH 23390 binding assay, rat striatal membranes
# measurement.parameters: ratio of Ki values, rat brain preparation
Listed compounds paired with reported Selectivity D1-like/D3

Example cases with answers are listed next.
compound: CCCN(CC[C@]1(O)C[C@@H](NC(=O)c2cccc(-c3noc(C)n3)c2)C1)[C@H]1CCc2nc(N)sc2C1 (relative stereo) [Compound 23]
Selectivity D1-like/D3: 28,300
//
compound: CCCN(CCC1(O)CC(NC(=O)c2ccccc2F)C1)[C@H]1CCc2nc(N)sc2C1 (stereo in doubt) [Compound 15]
Selectivity D1-like/D3: 116,521

Prompt: Could you share which Selectivity D1-like/D3 value was measured for CCCN(CCC1(O)CC(NS(=O)(=O)c2ccccc2)C1)[C@H]1CCc2nc(N)sc2C1 (stereo in doubt) [Compound 24] ?
Completion: 30,000

Prompt: Could you share which Selectivity D1-like/D3 value was measured for CCCN(CCC1(O)CC(NS(=O)(=O)c2cccc(F)c2)C1)[C@H]1CCc2nc(N)sc2C1 (stereo in doubt) [Compound 32] ?
Completion: 97,500

Prompt: Could you share which Selectivity D1-like/D3 value was measured for CCCN(CC[C@]1(O)C[C@@H](NS(=O)(=O)c2ccccc2Cl)C1)[C@H]1CCc2nc(N)sc2C1 (relative stereo) [Compound 28] ?
Completion: 160,847

###

# target.of.assay: human D3 receptor (Homo sapiens, UniProt P35462)
# Sequence (P35462 whole entry): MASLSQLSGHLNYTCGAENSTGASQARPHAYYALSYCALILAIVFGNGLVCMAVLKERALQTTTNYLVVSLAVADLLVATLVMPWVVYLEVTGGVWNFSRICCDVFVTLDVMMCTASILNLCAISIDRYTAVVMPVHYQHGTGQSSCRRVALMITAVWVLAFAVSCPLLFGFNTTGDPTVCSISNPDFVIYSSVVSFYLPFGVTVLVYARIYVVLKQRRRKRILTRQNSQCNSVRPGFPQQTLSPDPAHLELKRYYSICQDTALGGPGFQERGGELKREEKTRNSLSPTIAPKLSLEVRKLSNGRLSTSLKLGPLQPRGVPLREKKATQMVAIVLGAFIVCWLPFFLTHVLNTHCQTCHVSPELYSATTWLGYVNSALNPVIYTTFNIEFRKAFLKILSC
# Assay type: cell-based
# measurement.parameters: hD3-transfected CHOp cells, mitogenesis
readout.type: % of Stimulation compared to Quinpirole as the standard agonist (%)

compound: CCCN(CC[C@]1(O)C[C@@H](NS(=O)(=O)c2ccc(F)cc2)C1)[C@H]1CCc2nc(N)sc2C1 (relative stereo)
unit.of.measure: %
reading: 100

compound: CCCN(CCC1(O)CC(NC(=O)c2ccccc2F)C1)[C@H]1CCc2nc(N)sc2C1 (stereo in doubt)
unit.of.measure: %
reading: 100

compound: CCCN(CC[C@]1(O)C[C@@H](NC(=O)c2cccc(-c3noc(C)n3)c2)C1)[C@H]1CCc2nc(N)sc2C1 (relative stereo)
unit.of.measure: %
reading: 100

compound: CCCN(CCC1(O)CC(NC(=O)c2ccc(F)c(Cl)c2)C1)[C@H]1CCc2nc(N)sc2C1 (stereo in doubt)
unit.of.measure: %
reading: 100

compound: CCCN(CC[C@]1(O)C[C@@H](NC(=O)c2cccc(OC)c2)C1)[C@H]1CCc2nc(N)sc2C1 (relative stereo)
unit.of.measure: %
reading: 100

compound: CCCN(CCC1(O)CC(NS(=O)(=O)c2ccc(F)c(Cl)c2)C1)[C@H]1CCc2nc(N)sc2C1 (stereo in doubt)
unit.of.measure: %
reading: 100

###

# System: D1-like receptor (D1 and D5)
# assay.method.text: [3H]SCH 23390 binding assay, rat striatal membranes
# measurement.parameters: ratio of Ki values, rat brain preparation
readout.type: Selectivity D1-like/D3

compound: CCCN(CCC1(O)CC(NS(=O)(=O)c2ccccc2F)C1)[C@H]1CCc2nc(N)sc2C1 (stereo in doubt)
target.of.assay: D1-like receptor (D1 and D5)
readout.type: Selectivity D1-like/D3
reading: 109,000
--
compound: CCCN(CCC1(O)CC(NC(=O)c2ccccc2OC)C1)[C@H]1CCc2nc(N)sc2C1 (stereo in doubt)
target.of.assay: D1-like receptor (D1 and D5)
readout.type: Selectivity D1-like/D3
reading: 44,500
--
compound: CCCN(CCC1(O)CC(NS(=O)(=O)c2ccc(Cl)cc2)C1)[C@H]1CCc2nc(N)sc2C1 (stereo in doubt)
target.of.assay: D1-like receptor (D1 and D5)
readout.type: Selectivity D1-like/D3
reading: 17,654

Prompt: Could you share which Selectivity D1-like/D3 value was measured for CCCN(CC[C@]1(O)C[C@@H](NS(=O)(=O)c2ccc(F)cc2)C1)[C@H]1CCc2nc(N)sc2C1 (relative stereo) ?
Completion: 53,684

###

# Type: in vitro ADME
# measurement.parameters: 0.25 h
readout.type: Percentage remaining of compounds in human liver microsomes (%)

molecule: CCCN(CCC1(O)CC(NC(=O)c2ccc3ccccc3c2)C1)[C@H]1CCc2nc(N)sc2C1 (stereo partly shown)
unit.of.measure: %
reading: 34.9
--
molecule: CCCN(CCC1(O)CC(NC(=O)c2ccc(OC)cc2)C1)[C@H]1CCc2nc(N)sc2C1 (stereo in doubt)
unit.of.measure: %
reading: 94.0
--
molecule: CCCN(CC[C@]1(O)C[C@@H](NC(=O)c2cccc(OC)c2)C1)[C@H]1CCc2nc(N)sc2C1 (relative stereo)
unit.of.measure: %
reading: 92.5
--
molecule: CCCN(CC[C@]1(O)C[C@@H](NC(=O)c2cccc(-c3noc(C)n3)c2)C1)[C@H]1CCc2nc(N)sc2C1 (relative stereo)
unit.of.measure: %
reading: 99.0

###

# Type: in vitro ADME
# measurement.parameters: 10 min
readout.type: Percentage remaining of compounds in human liver microsomes (%)

molecule: CCCN(CCC1(O)CC(NC(=O)c2ccc3ccccc3c2)C1)[C@H]1CCc2nc(N)sc2C1 (stereo partly shown) [Compound 3]
unit.of.measure: %
reading: 49.9
--
molecule: CCCN(CCC1(O)CC(NC(=O)c2ccc(OC)cc2)C1)[C@H]1CCc2nc(N)sc2C1 (stereo in doubt) [Compound 20]
unit.of.measure: %
reading: 94.1
--
molecule: CCCN(CC[C@]1(O)C[C@@H](NC(=O)c2cccc(-c3noc(C)n3)c2)C1)[C@H]1CCc2nc(N)sc2C1 (relative stereo) [Compound 23]
unit.of.measure: %
reading: 99.2
--
molecule: CCCN(CC[C@]1(O)C[C@@H](NC(=O)c2cccc(OC)c2)C1)[C@H]1CCc2nc(N)sc2C1 (relative stereo) [Compound 21]
unit.of.measure: %
reading: 98.5

###

# Assay type: in vitro ADME
# measurement.parameters: 5 min
readout.type: Percentage remaining of compounds in human liver microsomes (%)

compound: CCCN(CCC1(O)CC(NC(=O)c2ccc(OC)cc2)C1)[C@H]1CCc2nc(N)sc2C1 (stereo in doubt)
reading: 97.7
//
compound: CCCN(CCC1(O)CC(NC(=O)c2ccc3ccccc3c2)C1)[C@H]1CCc2nc(N)sc2C1 (stereo partly shown)
reading: 79.2
//
compound: CCCN(CC[C@]1(O)C[C@@H](NC(=O)c2cccc(OC)c2)C1)[C@H]1CCc2nc(N)sc2C1 (relative stereo)
reading: 99.7
//
compound: CCCN(CC[C@]1(O)C[C@@H](NC(=O)c2cccc(-c3noc(C)n3)c2)C1)[C@H]1CCc2nc(N)sc2C1 (relative stereo)
reading: 96.6

###

# Tested on: D1-like receptor (D1 and D5)
# assay.method.text: [3H]SCH 23390 binding assay, rat striatal membranes
# measurement.parameters: ratio of Ki values, rat brain preparation
Listed molecules paired with reported Selectivity D1-like/D3

Example cases with answers are listed next.
molecule: CCCN(CCC1(O)CC(NS(=O)(=O)c2ccc(OC)cc2)C1)[C@H]1CCc2nc(N)sc2C1 (stereo in doubt)
target.of.assay: D1-like receptor (D1 and D5)
reading: 1,631

molecule: CCCN(CCC1(O)CC(NC(=O)c2ccc(-c3noc(C)n3)cc2)C1)[C@H]1CCc2nc(N)sc2C1 (stereo in doubt)
target.of.assay: D1-like receptor (D1 and D5)
reading: 20,000

Let us move to another entry and its Selectivity D1-like/D3.
Prompt: Could you share which Selectivity D1-like/D3 value was measured for CCCN(CCC1(O)CC(NC(=O)c2ccc(F)c(Cl)c2)C1)[C@H]1CCc2nc(N)sc2C1 (stereo in doubt) ?
Completion: 65,581

Recorded values, source paper PMC4277207.
